Kd: recorded values
- target: DLL3 (Homo sapiens)
- Sequence (Q9NYJ7 27-618): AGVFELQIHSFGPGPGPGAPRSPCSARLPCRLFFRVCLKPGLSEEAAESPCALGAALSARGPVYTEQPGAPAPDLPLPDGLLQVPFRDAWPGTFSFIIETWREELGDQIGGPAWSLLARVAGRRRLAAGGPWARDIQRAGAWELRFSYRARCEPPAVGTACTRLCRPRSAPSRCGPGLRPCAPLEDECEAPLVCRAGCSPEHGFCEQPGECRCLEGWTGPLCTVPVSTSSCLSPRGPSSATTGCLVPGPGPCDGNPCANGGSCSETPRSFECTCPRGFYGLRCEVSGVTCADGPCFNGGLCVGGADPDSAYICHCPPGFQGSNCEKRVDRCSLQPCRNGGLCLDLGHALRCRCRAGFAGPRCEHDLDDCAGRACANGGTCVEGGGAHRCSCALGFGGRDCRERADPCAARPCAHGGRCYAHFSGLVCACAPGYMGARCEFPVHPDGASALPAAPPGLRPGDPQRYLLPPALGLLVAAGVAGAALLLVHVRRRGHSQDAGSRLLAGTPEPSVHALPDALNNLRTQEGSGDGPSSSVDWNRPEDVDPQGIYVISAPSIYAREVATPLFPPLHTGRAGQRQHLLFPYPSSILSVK
- runDescription: SPR KD, biotinylated human DLL3 on streptavidin chip (Table 8)
- Set-up: biotin (biotinylated)
- conditionContext: biotinylated human DLL3 on streptavidin sensor chip, 25° C., 1:1 binding model; read-out: SPR KD
Where a SMILES comes first, the peptide text is derived from it. Bridges are numbered along the chain shown (N, C = ends). [ ]: non-standard residue; d: D form. The star is where a group is joined. DOTA = O=C(O)CN1CCN(CC(=O)O)CCN(CC(=O)*)CCN(CC(=O)O)CC1; Bip = N[C@@H](Cc1ccc(-c2ccccc2)cc1)C(=O)O; 2Nal = N[C@@H](Cc1ccc2ccccc2c1)C(=O)O; aIle = CC[C@@H](C)[C@H](N)C(=O)O; Nva = CCC[C@H](N)C(=O)O

Some molecules with recorded Kd:
molecule: CC[C@H](C)[C@H](NC(=O)[C@@H](NC(=O)[C@H](Cc1c[nH]c2ccccc12)NC(C)=O)[C@@H](C)O)C(=O)N[C@H]1CSSC[C@@H](C(=O)N[C@@H](Cc2c[nH]c3ccccc23)C(=O)N2CCC[C@H]2C(N)=O)NC(=O)[C@H](CC(=O)O)NC(=O)[C@H](Cc2cnc[nH]2)NC(=O)[C@H](Cc2ccc(-c3ccccc3)cc2)NC(=O)[C@H](CC(N)=O)NC(=O)[C@H](CC(N)=O)NC1=O [compound 53] (Ac-WTICNN[Bip]HDCWP-NH2; disulfide 4-10)
Kd: 10 to 100 nM

molecule: CCC[C@H](NC(C)=O)C(=O)N[C@@H](Cc1c[nH]c2ccccc12)C(=O)N[C@H](C(=O)N[C@H](C(=O)N[C@H]1CSSC[C@@H](C(=O)N[C@@H](Cc2c[nH]c3ccccc23)C(=O)N2CCC[C@H]2C(N)=O)NC(=O)[C@H](CC(=O)O)NC(=O)[C@H](Cc2cnc[nH]2)NC(=O)[C@H](Cc2c[nH]c3ccccc23)NC(=O)[C@H](CC(N)=O)NC(=O)[C@H](CC(N)=O)NC1=O)[C@@H](C)CC)[C@@H](C)O [compound 440] (Ac-[Nva]WTICNNWHDCWP-NH2; disulfide 5-11)
Kd: 10 to 100 nM

molecule: CC[C@H](C)[C@H](NC(=O)[C@@H](NC(=O)[C@H](Cc1c[nH]c2ccccc12)NC(=O)[C@H](CCSC)NC(C)=O)[C@@H](C)O)C(=O)N[C@H]1CSSC[C@@H](C(=O)N[C@@H](Cc2c[nH]c3ccccc23)C(=O)N2CCC[C@H]2C(N)=O)NC(=O)[C@H](C)NC(=O)[C@H](Cc2cnc[nH]2)NC(=O)[C@H](Cc2c[nH]c3ccccc23)NC(=O)[C@H](CC(N)=O)NC(=O)[C@H](CC(N)=O)NC1=O [compound 37] (Ac-MWTICNNWHACWP-NH2; disulfide 5-11)
Kd: 10 to 100 nM

molecule: CC[C@H](C)[C@H](NC(=O)[C@@H](NC(=O)[C@H](Cc1c[nH]c2ccccc12)NC(=O)[C@H](CCSC)NC(C)=O)[C@@H](C)O)C(=O)N[C@H]1CSSC[C@@H](C(=O)N[C@@H](Cc2c[nH]c3ccccc23)C(=O)N2CCC[C@H]2C(N)=O)NC(=O)[C@H](CC(=O)O)NC(=O)[C@H](C)NC(=O)[C@H](Cc2c[nH]c3ccccc23)NC(=O)[C@H](CC(N)=O)NC(=O)[C@H](CC(N)=O)NC1=O [compound 36] (Ac-MWTICNNWADCWP-NH2; disulfide 5-11)
Kd: 10 to 100 nM

Ask: Sample CC[C@@H](C)[C@H](NC(=O)[C@@H](NC(=O)[C@H](Cc1c[nH]c2ccccc12)NC(C)=O)[C@@H](C)O)C(=O)N[C@H]1CSSC[C@@H](C(=O)N[C@@H](Cc2c[nH]c3ccccc23)C(=O)N2CCC[C@H]2C(N)=O)NC(=O)[C@H](CC(=O)O)NC(=O)[C@H](CCCCNC(=O)CN2CCN(CC(=O)O)CCN(CC(=O)O)CCN(CC(=O)O)CC2)NC(=O)[C@H](Cc2ccc3ccccc3c2)NC(=O)[C@H](CC(N)=O)NC(=O)[C@H](CC(N)=O)NC1=O [compound 322] (Ac-WT[aIle]CNN[2Nal]K(DOTA)DCWP-NH2; disulfide 4-10) — what was its Kd?
Result: < 1 nM

---

Below: a set of entries, each annotated with reported pKd.
- target: DLL3 (Homo sapiens)
- runDescription: SPR KD, biotinylated human DLL3 on streptavidin chip (Table 8)
- Design: biotin (biotinylated)
- conditionContext: biotinylated human DLL3 on streptavidin sensor chip, 25° C., 1:1 binding model; read-out: SPR KD
pKd: −log10 of the molar value. Where a SMILES comes first, the peptide text is derived from it. Bridges are numbered along the chain shown (N, C = ends). [ ]: non-standard residue; d: D form. The star is where a group is joined. DOTA = O=C(O)CN1CCN(CC(=O)O)CCN(CC(=O)*)CCN(CC(=O)O)CC1; Phe(4-CF3) = N[C@@H](Cc1ccc(C(F)(F)F)cc1)C(=O)O; Trp(7-aza) = N[C@@H](Cc1c[nH]c2ncccc12)C(=O)O; Trp(1-Me) = Cn1cc(C[C@H](N)C(=O)O)c2ccccc21; 2Nal = N[C@@H](Cc1ccc2ccccc2c1)C(=O)O; Tle = CC(C)(C)[C@H](N)C(=O)O

Below, each entry is followed by its recorded pKd result.
compound: CC[C@H](C)[C@H](NC(=O)[C@@H](NC(=O)[C@H](Cc1c[nH]c2ccccc12)NC(C)=O)[C@@H](C)O)C(=O)N[C@H]1CSSC[C@@H](C(=O)N[C@@H](Cc2c[nH]c3ncccc23)C(=O)N2CCC[C@H]2C(N)=O)NC(=O)[C@H](CC(=O)O)NC(=O)[C@H](Cc2c[nH]cn2)NC(=O)[C@H](Cc2c[nH]c3ccccc23)NC(=O)[C@H](CC(N)=O)NC(=O)[C@H](CC(N)=O)NC1=O [compound 51] (Ac-WTICNNWHDC[Trp(7-aza)]P-NH2; disulfide 4-10)
pKd: 8.00 to 9.00

compound: CC(=O)N[C@@H](Cc1c[nH]c2ccccc12)C(=O)N[C@H](C(=O)N[C@H](C(=O)N[C@H]1CSSC[C@@H](C(=O)N[C@@H](Cc2c[nH]c3ccccc23)C(=O)N2CCC[C@H]2C(N)=O)NC(=O)[C@H](CC(=O)O)NC(=O)[C@H](CCCCNC(=O)CN2CCN(CC(=O)O)CCN(CC(=O)O)CCN(CC(=O)O)CC2)NC(=O)[C@H](Cc2ccc3ccccc3c2)NC(=O)[C@H](CC(N)=O)NC(=O)C(CN2CCOCC2)NC1=O)C(C)(C)C)[C@@H](C)O (some centres unmarked)
pKd: > 9.00

compound: CC(=O)N[C@@H](Cc1c[nH]c2ccccc12)C(=O)N[C@H](C(=O)N[C@H](C(=O)N[C@H]1CSSC[C@@H](C(=O)N[C@@H](Cc2c[nH]c3ccccc23)C(=O)N2CCC[C@H]2C(N)=O)NC(=O)[C@H](CC(=O)O)NC(=O)[C@H](CCCCNC(=O)CN2CCN(CC(=O)O)CCN(CC(=O)O)CCN(CC(=O)O)CC2)NC(=O)[C@H](Cc2ccc3ccccc3c2)NC(=O)[C@H](CC(N)=O)NC(=O)[C@H](CC(N)=O)NC1=O)C(C)(C)C)[C@@H](C)O [compound 315] (Ac-WT[Tle]CNN[2Nal]K(DOTA)DCWP-NH2; disulfide 4-10)
pKd: > 9.00

compound: CC[C@H](C)[C@H](NC(=O)[C@@H](NC(=O)[C@H](Cc1c[nH]c2ccccc12)NC(=O)[C@H](CCSC)NC(C)=O)[C@@H](C)O)C(=O)N[C@H]1CSSC[C@@H](C(=O)N[C@@H](Cc2c[nH]c3ccccc23)C(=O)N2CCC[C@H]2C(N)=O)NC(=O)[C@H](CC(=O)O)NC(=O)[C@H](Cc2cnc[nH]2)NC(=O)[C@H](Cc2cn(C)c3ccccc23)NC(=O)[C@H](CC(N)=O)NC(=O)[C@H](CC(N)=O)NC1=O [compound 42] (Ac-MWTICNN[Trp(1-Me)]HDCWP-NH2; disulfide 5-11)
pKd: 7.00 to 8.00

Ask: Param item = CC[C@H](C)[C@H](NC(=O)[C@@H](NC(=O)[C@H](Cc1c[nH]c2ccccc12)NC(C)=O)[C@@H](C)O)C(=O)N[C@H]1CSSC[C@@H](C(=O)N[C@@H](Cc2c[nH]c3ccccc23)C(=O)N2CCC[C@H]2C(N)=O)NC(=O)[C@H](CC(=O)O)NC(=O)[C@H](Cc2c[nH]cn2)NC(=O)[C@H](Cc2ccc(C(F)(F)F)cc2)NC(=O)[C@H](CC(N)=O)NC(=O)[C@H](CC(N)=O)NC1=O [compound 50] (Ac-WTICNN[Phe(4-CF3)]HDCWP-NH2; disulfide 4-10) ; retrieve measured pKd.
Result: 8.00 to 9.00
